Reference for the values: patent US20240109881A1

study-system: IRAK4 (Homo sapiens)
Construct: endogenous in cells; host or cells: THP-1 cells
Sequence (Q9NWZ3 1-460): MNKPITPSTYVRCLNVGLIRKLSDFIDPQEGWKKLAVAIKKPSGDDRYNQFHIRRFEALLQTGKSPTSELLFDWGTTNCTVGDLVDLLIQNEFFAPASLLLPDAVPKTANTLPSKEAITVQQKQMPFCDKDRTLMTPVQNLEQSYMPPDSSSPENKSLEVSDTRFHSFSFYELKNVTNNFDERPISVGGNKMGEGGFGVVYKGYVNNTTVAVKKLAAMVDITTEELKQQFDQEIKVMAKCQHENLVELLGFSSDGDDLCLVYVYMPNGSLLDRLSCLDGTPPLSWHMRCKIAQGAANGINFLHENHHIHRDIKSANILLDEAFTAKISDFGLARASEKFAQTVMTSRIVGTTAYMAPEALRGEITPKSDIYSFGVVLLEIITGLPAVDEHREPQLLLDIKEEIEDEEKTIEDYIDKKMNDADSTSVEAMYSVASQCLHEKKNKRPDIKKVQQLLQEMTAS
test-method-notes: LVL THP1 HTRF (THP1 Homogeneous Time Resolved Fluorescence)
Assay type: cell-based
run-conditions: THP1 cells, 18 h incubation with compound, read-out: LVL THP1 HTRF EC50
endpoint-label: DC50 (nM)

A. Cc1cc(N2CCN(CC[C@H]3CC[C@H](NC(=O)c4cnc(-n5ncc6cc(C#N)c(N)nc65)cc4N[C@H](C)C#N)CC3)C[C@H]2C)ccc1C1CCC(=O)NC1=O (stereo partly drawn) [P-172]
B. CC(C#N)Nc1cc(-n2ncc3cc(C#N)cnc32)ncc1-n1cc(C2CCC(C(C)CN3CCN(c4ccc(C5CCC(=O)NC5=O)cc4)CC3)CC2)nn1 (stereo not drawn) [P-213]
Query: // compare measured DC50 between A and B ; output the lower one Reply briefly: the label of your chosen item.
Reply: B

---

study-system: IRAK4 (Homo sapiens, UniProt Q9NWZ3)
Construct: endogenous in cells; host or cells: THP-1 cells
test-method-notes: ALE THP1 HTRF (Advanced Lipoxidation End Product THP1 Homogeneous Time Resolved Fluorescence)
Format: cell-based
run-conditions: THP1 cells
Protocol: For Homogenous Time Resolved Fluorescence (HTRF) assays, a Cisbio HTRF kit was used, which included: Lysis Buffer #1 4×, Blocking Reagent #3 100×, 20× Antibody 1 (Anti-IRAK4 d2), 20× Antibody 2 (Anti-IRAK4 k), and Detection Buffer. 4× Lysis Buffer was stored at 4° C. […] Cells were lysed at room temperature for 45 min with shaking. […] The samples were analyzed by a plate reader (Envision, PerkinElmer) using the Desnor 384 HTRF program.
endpoint-label: ALE THP1 HTRF YMIN (%)

INSERT INTO assay_data (compound, endpoint_label, experimental_result) VALUES
  ('O=C1CCC(N2C(=O)c3ccc(N4CCN(C(=O)C5CCC(NC(=O)c6cnc(Nc7ccn8nccc8n7)cc6NC6CCCC6)CC5)CC4)cc3C2=O)C(=O)N1 (stereo not drawn)', 'ALE THP1 HTRF YMIN', 30.8),
  ('N#CCNc1cc(-n2ncc3cc(C#N)cnc32)ncc1C(=O)NC1CCC(CCN2CCN(c3ccc(C4CCC(=O)NC4=O)cc3)CC2)CC1 (stereo not drawn)', 'ALE THP1 HTRF YMIN', 10.3),
  ('C[C@H](C#N)Nc1cc(-n2ncc3cc(C#N)cnc32)ncc1-n1cc(C2CCC(CCN3CCN(c4ccc(C5CCC(=O)NC5=O)cc4)[C@H](C)C3)CC2)nn1 (stereo partly drawn)', 'ALE THP1 HTRF YMIN', 10.2);

1. C[C@H](C#N)Nc1cc(-n2ncc3cc(C#N)cnc32)ncc1C(=O)N[C@H]1CC[C@H](CCN2C[C@@H](C)N(c3ccc(C4CCC(=O)NC4=O)cc3)C[C@@H]2C)CC1 (stereo partly drawn)
2. C[C@H](C#N)Nc1cc(-n2ncc3cc(C#N)c(N)nc32)ncc1C(=O)N[C@H]1CC[C@H](CCN2CCN(c3ccc(C4CCC(=O)NC4=O)cc3)C(C(F)(F)F)C2)CC1 (stereo partly drawn) [P-186]
3. CCCNc1cc(-n2ncc3cc(C#N)cnc32)ncc1C(=O)N[C@H]1CC[C@H](CCN2CCN(c3ccc(C4CCC(=O)NC4=O)cc3)CC2)CC1 (stereo partly drawn)
Query: Arrange the 3 entries by ALE THP1 HTRF YMIN so the values rise. Put the labels in the requested order and write them down.
Reply: 1, 3, 2
